Exercise: for every item that follows, state its recorded shrunken log2 fold change.
Tested on: Escherichia coli TOP10
ASSAY PROTOCOL: shrunken log2 fold change of peptide-encoding DNA abundance (4.5 h post-induction vs induction); higher = less antimicrobial activity (less host growth inhibition)
RUN PARAMETERS: time post-induction: 4.5 h; library: site-saturation at positions 5, 18, 19, 20
Answers are plain numbers.

RRIRIRPPRLPRPRPRPESKPRP ... -0.208
RRIRPRPPRLPRPRPRPFRTPRP ... -0.362
RRIRERPPRLPRPRPRPYRIPRP ... -0.0789
RRIRERPPRLPRPRPRPPHPPRP ... -0.0298
RRIRNRPPRLPRPRPRPEMVPRP ... -0.0225

I'm hoping you can list shrunken log2 fold change for every sequence here, please.
1. RRIRHRPPRLPRPRPRPPRCPRP
2. RRIRCRPPRLPRPRPRPLNYPRP
3. RRIRLRPPRLPRPRPRPMDCPRP

Result:
1. 0.526
2. 0.101
3. -0.0117

###

System: Escherichia coli TOP10
ASSAY PROTOCOL: shrunken log2 fold change of peptide-encoding DNA abundance (4.5 h post-induction vs induction); higher = less antimicrobial activity (less host growth inhibition)
RUN PARAMETERS: time post-induction: 4.5 h; library: site-saturation at positions 5, 18, 19, 20
Returns one of label 1 or label 0; label 1 when shrunken log2 fold change is >= -0.1.

Consider the following illustrative entries.
RRIRHRPPRLPRPRPRPHLQPRP ... label 0
RRIRQRPPRLPRPRPRPLWSPRP ... label 0
RRIRWRPPRLPRPRPRPRQYPRP ... label 0
RRIRTRPPRLPRPRPRPPADPRP ... label 1
RRIRYRPPRLPRPRPRPLKQPRP ... label 1
RRIRLRPPRLPRPRPRPQMDPRP ... label 0

Query: Is shrunken log2 fold change at least -0.1? Consider RRIRIRPPRLPRPRPRPMHTPRP
Result: label 1

Query: What do you get for RRIRHRPPRLPRPRPRPCVTPRP ?
Result: label 0

###

System: Escherichia coli TOP10
ASSAY PROTOCOL: shrunken log2 fold change of peptide-encoding DNA abundance (4.5 h post-induction vs induction); higher = less antimicrobial activity (less host growth inhibition)
RUN PARAMETERS: time post-induction: 4.5 h; library: site-saturation at positions 5, 18, 19, 20
REPORTED METRIC: shrunken log2 fold change

The cases that follow already have their shrunken log2 fold change on record.
RRIRERPPRLPRPRPRPCHIPRP ... -0.439
RRIRVRPPRLPRPRPRPPQSPRP ... 0.249
RRIRKRPPRLPRPRPRPPQSPRP ... 0.863

I'm hoping you can list shrunken log2 fold change for every sequence here, please.
1. RRIRSRPPRLPRPRPRPLDPPRP
2. RRIRARPPRLPRPRPRPMKRPRP

Result:
-0.0203
0.223

I'm hoping you can list shrunken log2 fold change for every sequence here, please.
1. RRIRGRPPRLPRPRPRPAWDPRP
2. RRIRARPPRLPRPRPRPRMKPRP
3. RRIRVRPPRLPRPRPRPGTRPRP
4. RRIRRRPPRLPRPRPRPMTRPRP
5. RRIRNRPPRLPRPRPRPLQTPRP
6. RRIRTRPPRLPRPRPRPGGVPRP
7. RRIRDRPPRLPRPRPRPFWHPRP
8. RRIRARPPRLPRPRPRPKMMPRP

Result:
0.76
0.457
-0.0152
0.315
-0.0644
0.346
-0.166
0.105

I'm hoping you can list shrunken log2 fold change for every sequence here, please.
1. RRIRKRPPRLPRPRPRPSGWPRP
2. RRIRSRPPRLPRPRPRPMCAPRP

Result:
-0.146
0.29

I'm hoping you can list shrunken log2 fold change for every sequence here, please.
1. RRIRERPPRLPRPRPRPYKFPRP
2. RRIRARPPRLPRPRPRPDYTPRP
3. RRIRMRPPRLPRPRPRPTYRPRP
4. RRIRYRPPRLPRPRPRPARLPRP
5. RRIRARPPRLPRPRPRPKESPRP

Result:
[-0.835, -0.312, 0.422, -0.0429, 0.602]

###

System: Escherichia coli TOP10
ASSAY PROTOCOL: shrunken log2 fold change of peptide-encoding DNA abundance (4.5 h post-induction vs induction); higher = less antimicrobial activity (less host growth inhibition)
RUN PARAMETERS: time post-induction: 4.5 h; library: site-saturation at positions 5, 18, 19, 20
REPORTED METRIC: shrunken log2 fold change
Give bare numbers.

The cases that follow already have their shrunken log2 fold change on record.
RRIRSRPPRLPRPRPRPEFEPRP ... 0.731
RRIRERPPRLPRPRPRPGCTPRP ... -0.169

Kindly consider the entry below.
Query: Dear colleague, I am looking for the recorded shrunken log2 fold change of the following sequence: RRIRYRPPRLPRPRPRPITWPRP
Result: -0.353

###

Exercise: for every item that follows, state its recorded shrunken log2 fold change.
System: Escherichia coli TOP10
ASSAY PROTOCOL: shrunken log2 fold change of peptide-encoding DNA abundance (4.5 h post-induction vs induction); higher = less antimicrobial activity (less host growth inhibition)
RUN PARAMETERS: time post-induction: 4.5 h; library: site-saturation at positions 5, 18, 19, 20
Numbers only.

I'm hoping you can list shrunken log2 fold change for every sequence here, please.
1. RRIRRRPPRLPRPRPRPFPAPRP
2. RRIRLRPPRLPRPRPRPAACPRP

Result:
[0.731, 0.267]

I'm hoping you can list shrunken log2 fold change for every sequence here, please.
1. RRIRTRPPRLPRPRPRPVIAPRP
2. RRIRWRPPRLPRPRPRPALQPRP
3. RRIRYRPPRLPRPRPRPQHKPRP
4. RRIRARPPRLPRPRPRPVLHPRP

Result:
1. -0.189
2. 0.367
3. -0.547
4. 0.288

I'm hoping you can list shrunken log2 fold change for every sequence here, please.
1. RRIRQRPPRLPRPRPRPDKYPRP
2. RRIRDRPPRLPRPRPRPNPYPRP
3. RRIRFRPPRLPRPRPRPNQEPRP
4. RRIRYRPPRLPRPRPRPPMYPRP

Result:
[-0.0227, -0.558, 0.229, -1.28]

I'm hoping you can list shrunken log2 fold change for every sequence here, please.
1. RRIRIRPPRLPRPRPRPSTSPRP
2. RRIRIRPPRLPRPRPRPWYEPRP

Result:
-0.492
-0.0153

###

Tested on: Escherichia coli TOP10
ASSAY PROTOCOL: shrunken log2 fold change of peptide-encoding DNA abundance (4.5 h post-induction vs induction); higher = less antimicrobial activity (less host growth inhibition)
RUN PARAMETERS: time post-induction: 4.5 h; library: site-saturation at positions 5, 18, 19, 20
REPORTED METRIC: shrunken log2 fold change

The cases that follow already have their shrunken log2 fold change on record.
RRIRCRPPRLPRPRPRPTSSPRP ... -0.11
RRIRHRPPRLPRPRPRPVIGPRP ... -0.0297
RRIRTRPPRLPRPRPRPGMPPRP ... -0.0497

Kindly consider the entry below.
Query: Dear colleague, I am looking for the recorded shrunken log2 fold change of the following sequence: RRIRGRPPRLPRPRPRPDFAPRP
Result: 0.724

###

System: Escherichia coli TOP10;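 note: peptides expressed intracellularly from a pBAD plasmid library in pooled LB shake-flask culture, induced with 0.3% L-arabinose, DNA abundance read by NGS, three biological replicates, DESeq2 with apeglm shrinkage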
ASSAY PROTOCOL: shrunken log2 fold change of peptide-encoding DNA abundance (4.5 h post-induction vs induction); higher = less antimicrobial activity (less host growth inhibition)
RUN PARAMETERS: time post-induction: 4.5 h; library: site-saturation at positions 5, 18, 19, 20
Returns one of true (1) or false (0); true (1) when shrunken log2 fold change is >= 0.04.

Consider the following illustrative entries.
RRIRNRPPRLPRPRPRPMPPPRP ... true (1)
RRIRVRPPRLPRPRPRPPRRPRP ... true (1)
RRIRERPPRLPRPRPRPDKRPRP ... false (0)
RRIRWRPPRLPRPRPRPEWYPRP ... true (1)
RRIRTRPPRLPRPRPRPAWAPRP ... true (1)

Query: Is shrunken log2 fold change at least 0.04? Consider RRIRIRPPRLPRPRPRPHTKPRP
Result: false (0)

Query: What do you get for RRIRSRPPRLPRPRPRPWIKPRP ?
Result: false (0)

Query: What do you get for RRIRRRPPRLPRPRPRPRQPPRP ?
Result: true (1)

Query: What do you get for RRIRVRPPRLPRPRPRPYAYPRP ?
Result: true (1)

Query: What do you get for RRIRPRPPRLPRPRPRPRKMPRP ?
Result: false (0)

Query: What do you get for RRIRERPPRLPRPRPRPNFWPRP ?
Result: true (1)

Query: What do you get for RRIRLRPPRLPRPRPRPCGPPRP ?
Result: false (0)

Query: What do you get for RRIRIRPPRLPRPRPRPLKTPRP ?
Result: false (0)

Query: What do you get for RRIRQRPPRLPRPRPRPTYFPRP ?
Result: false (0)

Query: What do you get for RRIRLRPPRLPRPRPRPNGGPRP ?
Result: false (0)

Query: What do you get for RRIRTRPPRLPRPRPRPEETPRP ?
Result: false (0)

Query: What do you get for RRIRYRPPRLPRPRPRPINWPRP ?
Result: false (0)

Query: What do you get for RRIRVRPPRLPRPRPRPFPKPRP ?
Result: false (0)

Query: What do you get for RRIRWRPPRLPRPRPRPGKPPRP ?
Result: true (1)

Query: What do you get for RRIRSRPPRLPRPRPRPRAHPRP ?
Result: true (1)

Query: What do you get for RRIRYRPPRLPRPRPRPDPVPRP ?
Result: false (0)

Query: What do you get for RRIRNRPPRLPRPRPRPSILPRP ?
Result: false (0)

Query: What do you get for RRIRPRPPRLPRPRPRPCMSPRP ?
Result: false (0)

Query: What do you get for RRIRTRPPRLPRPRPRPIHLPRP ?
Result: false (0)

Query: What do you get for RRIRWRPPRLPRPRPRPLYRPRP ?
Result: false (0)
